# Procedure Details: Half life in human liver microsomes
# Format: ADME, Microsome
Property Measured: half-life (h)
Supply the numeric figure in h, leaving out any unit text.

*Q* Annotate the molecule "O=C(CN1C(C(=O)c2ccccc2)=C(O)c2ccccc2S1(=O)=O)c1ccccc1" with its measured half-life.
*A* 1.25

###

# Procedure Details: Cmax in rat
# Assay type: ADME, organism-based
# Conditions: in vivo
Property Measured: Cmax (ng/mL)
Supply the numeric figure in ng/mL, leaving out any unit text.

*Q* Annotate the molecule "O=C(CN1C(C(=O)c2ccccc2)=C(O)c2ccccc2S1(=O)=O)c1ccccc1" with its measured Cmax.
*A* 1100

###

# Procedure Details: Half life in rat
# Type: ADME, organism-based
# Conditions: in vivo
Property Measured: half-life (h)
Supply the numeric figure in h, leaving out any unit text.

*Q* Annotate the compound "O=C(CN1C(C(=O)c2ccccc2)=C(O)c2ccccc2S1(=O)=O)c1ccccc1" with its measured half-life.
*A* 5.5
